Would you kindly list melting point for each of these compounds?

[
  {
    "Compound": "O=S(=O)(c1ccccc1)c1ccc2c(c1)O[C@@H](CN1CCNCC1)CO2 (stereo in doubt)",
    "Observed property": "melting point",
    "Result": "279.2 to 279.4 °C"
  },
  {
    "Compound": "CNC[C@H]1COc2ccc(S(=O)(=O)c3ccc(C)cc3)cc2O1 (stereo in doubt)",
    "Observed property": "melting point",
    "Result": "213 to 214.1 °C"
  },
  {
    "Compound": "CN(C)C[C@@H]1COc2ccc(S(=O)(=O)c3cccc(F)c3)cc2O1 (stereo in doubt)",
    "Observed property": "melting point",
    "Result": "228.7 to 231.3 °C"
  },
  {
    "Compound": "CNCC1COc2ccc(S(=O)(=O)c3ccccc3)cc2O1 (racemic)",
    "Observed property": "melting point",
    "Result": "198 to 199.4 °C"
  },
  {
    "Compound": "COCCNC[C@@H]1COc2ccc(S(=O)(=O)c3cccc(F)c3)cc2O1 (stereo in doubt)",
    "Observed property": "melting point",
    "Result": "193 to 196.9 °C"
  }
]

Give measured melting point for every item shown.
1. CC(C)NC[C@@H]1COc2ccc(S(=O)(=O)c3cccc(F)c3)cc2O1 (stereo in doubt)
2. CNC[C@@H]1COc2ccc(S(=O)(=O)c3cccc(C)c3)cc2O1 (stereo in doubt)

RESULT:
1: 242.4 to 243.8 °C; 2: 99.9 to 106.1 °C

====

Would you kindly list melting point for each of these compounds?

[
  {
    "Compound": "O=S(=O)(c1ccccc1)c1ccc2c(c1)O[C@@H](CNCc1ccccc1)CO2 (stereo in doubt)",
    "melting point": "220.9 to 224.9 °C"
  },
  {
    "Compound": "CNC[C@H]1COc2ccc(S(=O)(=O)c3cccc(F)c3)cc2O1",
    "melting point": "245.8 to 246.4 °C"
  },
  {
    "Compound": "NC(=O)NC[C@H]1COc2ccc(S(=O)(=O)c3ccccc3)cc2O1 (stereo in doubt)",
    "melting point": "104.9 to 105.7 °C"
  }
]

Consider now this further compound.
response.value for CNC[C@@H]1COc2cc(S(=O)(=O)c3ccccc3)ccc2O1 (field: melting point) = 219.7 to 225.4 °C

====

Observed property: melting point

Consider the following illustrative entries.
[
  {
    "Molecule": "CN(O)C[C@H]1COc2ccc(S(=O)(=O)c3ccccc3)cc2O1 (stereo in doubt)",
    "melting point": "199.2 to 200.8 °C"
  },
  {
    "Molecule": "O=S(=O)(c1ccccc1)c1ccc2c(c1)O[C@@H](CN1CC1)CO2 (stereo in doubt)",
    "melting point": "203.9 to 206.6 °C"
  },
  {
    "Molecule": "O=S(=O)(c1ccccc1)c1ccc2c(c1)O[C@@H](Cn1ccnc1)CO2 (stereo in doubt)",
    "melting point": "88 to 90 °C"
  }
]

response.value for O=S(=O)(c1ccccc1)c1ccc2c(c1)O[C@H](CN1CCCC1)CO2 (field: melting point) = 75.8 to 112.7 °C

====

Would you kindly list melting point for each of these compounds?

[
  {
    "Compound": "CNC[C@H]1COc2ccc(S(=O)(=O)c3cccc(C#N)c3)cc2O1 (stereo in doubt)",
    "Observed property": "melting point",
    "Result": "190.6 to 192.1 °C"
  },
  {
    "Compound": "N=C(N)NC[C@H]1COc2ccc(S(=O)(=O)c3ccccc3)cc2O1 (stereo in doubt)",
    "Observed property": "melting point",
    "Result": "126.5 to 128.3 °C"
  },
  {
    "Compound": "O=S(=O)(c1cccc(F)c1)c1ccc2c(c1)O[C@H](CN1CCC1)CO2 (stereo in doubt)",
    "Observed property": "melting point",
    "Result": "100.8 to 108.3 °C"
  },
  {
    "Compound": "CCNC[C@@H]1COc2ccc(S(=O)(=O)c3cccc(F)c3)cc2O1 (stereo in doubt)",
    "Observed property": "melting point",
    "Result": "247.5 to 251.3 °C"
  },
  {
    "Compound": "O=S(=O)(c1cccc(F)c1)c1ccc2c(c1)O[C@H](CN1CC1)CO2 (stereo in doubt)",
    "Observed property": "melting point",
    "Result": "215.4 to 217.2 °C"
  }
]

Give measured melting point for every item shown.
1. O=S(=O)(c1cccc(F)c1)c1ccc2c(c1)O[C@@H](CNCc1ccccc1)CO2 (stereo in doubt)
2. CN(C)C[C@H]1COc2ccc(S(=O)(=O)c3ccccc3)cc2O1 (stereo in doubt)
3. CCNC[C@H]1COc2ccc(S(=O)(=O)c3ccccc3)cc2O1 (stereo in doubt)
4. NC[C@H]1COc2ccc(S(=O)(=O)c3cccc(F)c3)cc2O1
5. CNC[C@H]1COc2cc(S(=O)(=O)c3ccccc3)ccc2O1
6. CNC[C@@H]1COc2ccc(S(=O)(=O)c3ccccc3C)cc2O1 (stereo in doubt)

RESULT:
195.1 to 197.1 °C
232 to 233.5 °C
242.2 to 246.7 °C
224.9 to 227.9 °C
218.2 to 220.5 °C
169 to 170.8 °C

Give measured melting point for every item shown.
1. COCCNC[C@H]1COc2ccc(S(=O)(=O)c3ccccc3)cc2O1 (stereo in doubt)
2. CNC[C@@H]1COc2ccc(S(=O)(=O)c3cccc(F)c3)cc2O1
3. O=S(=O)(c1ccccc1)c1ccc2c(c1)O[C@@H](CN1CCC(O)C1)CO2 (stereo in doubt)
4. CNC[C@H]1COc2ccc(S(=O)(=O)c3ccccc3)cc2O1
5. CC(C)NC[C@H]1COc2ccc(S(=O)(=O)c3ccccc3)cc2O1 (stereo in doubt)

RESULT:
169.3 to 171.9 °C
250.1 to 254.3 °C
94.7 to 96.4 °C
240 to 243.6 °C
224.9 to 228.8 °C
